Measured melting point of individual entries

compound: COc1ccc(N2CCN(c3c(C)c(C)c4c(c3C)CC(C)(C)O4)CC2)cc1C
recordedMetric: melting point
measuredResult: 137 to 141 °C
--
compound: Cc1ccc(C(=O)N[C@H](C)C(N)=O)cc1-n1c(C)cc(OCc2ccccc2CNC(=O)Nc2cc(C(C)(C)C)nn2-c2ccc(O)c(Cl)c2)c(Cl)c1=O
recordedMetric: melting point
measuredResult: 192 to 193 °C
--
compound: Cc1ccc(-c2nc3ccc(N4C[C@H]5CN(C)C[C@H]5C4)nn3c2-c2ccncc2)o1
recordedMetric: melting point
measuredResult: 178 to 181 °C
--
compound: CCN1OCCC(=Cc2cc(C(C)(C)C)c(O)c(C(C)(C)C)c2)C1=O
recordedMetric: melting point
measuredResult: 166 to 167 °C
--
compound: CC1CCN(c2ccc([N+](=O)[O-])cc2C(=O)c2ccc(Br)cc2)CC1
recordedMetric: melting point
measuredResult: 142 °C

Then there is this compound:
Value of measured melting point for the entry CC(C)(O)c1cccc(-c2ccc3nc(-c4ccc(Cl)cc4)c(F)n3c2)c1 : 174 to 175 °C
